- Assayed target: Protein deacetylase HDAC6 (Homo sapiens, UniProt Q9UBN7)
- Sequence (Q9UBN7 whole entry): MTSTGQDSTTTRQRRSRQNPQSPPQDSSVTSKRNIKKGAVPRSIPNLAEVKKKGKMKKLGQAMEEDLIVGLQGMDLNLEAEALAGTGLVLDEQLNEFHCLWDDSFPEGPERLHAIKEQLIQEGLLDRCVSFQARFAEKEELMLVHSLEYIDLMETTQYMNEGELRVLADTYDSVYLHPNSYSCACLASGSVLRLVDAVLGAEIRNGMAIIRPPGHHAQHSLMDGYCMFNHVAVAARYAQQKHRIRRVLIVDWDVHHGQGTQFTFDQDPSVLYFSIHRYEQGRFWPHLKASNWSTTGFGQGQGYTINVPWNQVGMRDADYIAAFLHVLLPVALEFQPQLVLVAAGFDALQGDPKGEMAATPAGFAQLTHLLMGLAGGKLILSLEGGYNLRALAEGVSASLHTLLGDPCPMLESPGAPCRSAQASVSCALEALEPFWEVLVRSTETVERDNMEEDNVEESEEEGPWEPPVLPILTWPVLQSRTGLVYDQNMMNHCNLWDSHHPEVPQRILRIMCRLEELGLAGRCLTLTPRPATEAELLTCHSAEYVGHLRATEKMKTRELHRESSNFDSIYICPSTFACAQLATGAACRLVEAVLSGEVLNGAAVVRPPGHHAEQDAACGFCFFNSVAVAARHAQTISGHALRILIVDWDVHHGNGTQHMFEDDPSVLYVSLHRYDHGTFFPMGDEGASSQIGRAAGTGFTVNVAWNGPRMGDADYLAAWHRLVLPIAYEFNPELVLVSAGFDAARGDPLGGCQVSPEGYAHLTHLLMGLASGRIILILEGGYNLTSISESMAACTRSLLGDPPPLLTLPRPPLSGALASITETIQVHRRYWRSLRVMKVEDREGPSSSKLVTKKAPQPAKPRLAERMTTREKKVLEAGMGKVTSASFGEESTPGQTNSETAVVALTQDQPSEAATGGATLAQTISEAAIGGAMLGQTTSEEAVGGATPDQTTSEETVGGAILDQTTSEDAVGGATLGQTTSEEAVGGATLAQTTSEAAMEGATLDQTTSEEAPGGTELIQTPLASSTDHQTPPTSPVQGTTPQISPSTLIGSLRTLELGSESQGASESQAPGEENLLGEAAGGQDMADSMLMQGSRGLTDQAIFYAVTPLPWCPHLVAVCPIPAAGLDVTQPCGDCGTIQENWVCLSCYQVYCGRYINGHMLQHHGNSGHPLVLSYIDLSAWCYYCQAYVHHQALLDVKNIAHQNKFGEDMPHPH
- Assay info: Inhibition of recombinant human full length C-terminal GST-tagged HDAC6 expressed in baculovirus infected Sf9 cells using ZMAL as substrate incubated for 90 mins by fluorometric method
pIC50: −log10 of the molar value.
Measured attribute: pIC50

A = CN(C)c1cccc2c(S(=O)(=O)N(CCCCCC(=O)NO)CC(=O)NCc3ccccc3)cccc12
B = CN(C)c1cccc2c(S(=O)(=O)N(CC(=O)NCc3ccccc3)Cc3ccc(C(=O)NO)cc3)cccc12
Prompt: Min pIC50? A | B Select an item and report its label.
Completion: B

----------
- Assayed target: Histone deacetylase 3/Nuclear receptor corepressor 2 (HDAC3/NCoR2) (Homo sapiens)
- Sequence (O15379 whole entry, the tested form may be a part): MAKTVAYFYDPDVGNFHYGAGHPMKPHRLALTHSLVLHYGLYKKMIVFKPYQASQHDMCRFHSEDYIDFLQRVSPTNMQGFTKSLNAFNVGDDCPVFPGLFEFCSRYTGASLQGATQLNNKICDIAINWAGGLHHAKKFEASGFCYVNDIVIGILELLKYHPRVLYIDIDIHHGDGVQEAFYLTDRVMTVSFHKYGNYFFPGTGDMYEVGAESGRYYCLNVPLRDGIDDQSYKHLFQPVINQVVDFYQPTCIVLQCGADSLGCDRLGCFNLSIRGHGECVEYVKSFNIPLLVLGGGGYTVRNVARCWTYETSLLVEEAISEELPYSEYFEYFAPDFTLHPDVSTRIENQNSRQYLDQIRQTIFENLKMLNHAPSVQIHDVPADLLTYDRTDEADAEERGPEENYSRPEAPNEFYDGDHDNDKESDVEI
- Sequence (Q9Y618 whole entry, further chain, the tested form may be a part): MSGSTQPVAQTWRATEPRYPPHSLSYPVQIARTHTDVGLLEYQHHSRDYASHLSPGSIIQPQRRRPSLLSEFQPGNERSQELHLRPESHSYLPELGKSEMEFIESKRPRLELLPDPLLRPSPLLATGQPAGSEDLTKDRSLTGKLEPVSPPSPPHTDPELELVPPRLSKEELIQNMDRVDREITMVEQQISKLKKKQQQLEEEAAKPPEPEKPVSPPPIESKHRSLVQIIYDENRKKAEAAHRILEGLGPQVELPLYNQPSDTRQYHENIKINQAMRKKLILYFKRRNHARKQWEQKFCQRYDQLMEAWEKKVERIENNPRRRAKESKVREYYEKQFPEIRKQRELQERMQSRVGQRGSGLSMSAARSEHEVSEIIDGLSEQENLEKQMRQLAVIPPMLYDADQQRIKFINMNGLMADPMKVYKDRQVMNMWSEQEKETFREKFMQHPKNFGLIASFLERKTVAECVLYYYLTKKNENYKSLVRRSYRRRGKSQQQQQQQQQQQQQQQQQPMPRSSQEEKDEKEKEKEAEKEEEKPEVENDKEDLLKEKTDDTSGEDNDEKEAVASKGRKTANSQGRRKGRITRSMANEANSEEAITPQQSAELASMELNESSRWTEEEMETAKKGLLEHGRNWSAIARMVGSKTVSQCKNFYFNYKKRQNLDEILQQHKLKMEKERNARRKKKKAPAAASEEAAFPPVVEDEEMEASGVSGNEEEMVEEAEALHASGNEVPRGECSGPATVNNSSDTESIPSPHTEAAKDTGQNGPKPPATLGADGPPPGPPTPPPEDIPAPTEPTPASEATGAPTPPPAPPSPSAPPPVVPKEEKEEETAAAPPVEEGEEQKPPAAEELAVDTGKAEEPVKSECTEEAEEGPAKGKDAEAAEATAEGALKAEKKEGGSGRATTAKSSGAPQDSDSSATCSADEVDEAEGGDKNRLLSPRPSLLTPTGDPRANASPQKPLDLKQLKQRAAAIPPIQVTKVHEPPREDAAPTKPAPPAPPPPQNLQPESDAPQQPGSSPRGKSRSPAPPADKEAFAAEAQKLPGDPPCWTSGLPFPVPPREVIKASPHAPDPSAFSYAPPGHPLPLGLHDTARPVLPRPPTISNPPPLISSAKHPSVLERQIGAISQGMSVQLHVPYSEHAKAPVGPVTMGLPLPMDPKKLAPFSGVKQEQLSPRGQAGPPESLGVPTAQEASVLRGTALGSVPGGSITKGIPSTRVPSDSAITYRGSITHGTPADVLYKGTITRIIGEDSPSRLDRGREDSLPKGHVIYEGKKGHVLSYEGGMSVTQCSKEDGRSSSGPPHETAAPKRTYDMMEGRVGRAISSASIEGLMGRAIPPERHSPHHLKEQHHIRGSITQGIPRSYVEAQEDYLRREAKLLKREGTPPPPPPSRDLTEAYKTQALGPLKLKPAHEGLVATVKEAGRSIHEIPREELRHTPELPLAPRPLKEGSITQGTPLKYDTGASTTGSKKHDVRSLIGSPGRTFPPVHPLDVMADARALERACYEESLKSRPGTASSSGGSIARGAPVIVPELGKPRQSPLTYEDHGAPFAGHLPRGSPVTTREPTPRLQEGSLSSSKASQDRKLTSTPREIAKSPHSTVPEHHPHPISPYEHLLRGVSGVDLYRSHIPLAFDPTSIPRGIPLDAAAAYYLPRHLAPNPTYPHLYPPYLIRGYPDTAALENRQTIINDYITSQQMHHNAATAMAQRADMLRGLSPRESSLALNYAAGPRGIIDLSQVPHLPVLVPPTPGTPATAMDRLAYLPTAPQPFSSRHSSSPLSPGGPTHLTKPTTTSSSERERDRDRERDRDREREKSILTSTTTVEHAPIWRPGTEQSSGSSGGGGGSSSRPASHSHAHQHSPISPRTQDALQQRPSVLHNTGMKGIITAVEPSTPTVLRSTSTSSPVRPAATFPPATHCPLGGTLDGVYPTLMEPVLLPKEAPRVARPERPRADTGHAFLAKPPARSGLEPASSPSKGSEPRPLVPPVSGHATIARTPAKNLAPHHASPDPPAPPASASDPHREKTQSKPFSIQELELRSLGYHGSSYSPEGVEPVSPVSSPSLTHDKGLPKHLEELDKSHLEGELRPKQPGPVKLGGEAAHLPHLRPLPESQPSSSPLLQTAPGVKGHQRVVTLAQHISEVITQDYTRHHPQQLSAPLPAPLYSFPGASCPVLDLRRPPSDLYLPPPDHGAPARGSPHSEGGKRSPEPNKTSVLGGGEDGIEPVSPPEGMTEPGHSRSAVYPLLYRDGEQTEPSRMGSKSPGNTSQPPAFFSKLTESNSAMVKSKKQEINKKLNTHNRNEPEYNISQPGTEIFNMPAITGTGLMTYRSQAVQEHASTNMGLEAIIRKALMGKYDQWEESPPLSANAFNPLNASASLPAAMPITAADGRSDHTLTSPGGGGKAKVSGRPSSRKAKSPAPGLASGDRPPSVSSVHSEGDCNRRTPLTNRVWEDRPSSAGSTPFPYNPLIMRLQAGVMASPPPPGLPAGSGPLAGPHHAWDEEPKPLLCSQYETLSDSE
- Assay info: Inhibition of recombinant human C-terminal GST/His-tagged HDAC3 (1 to 428 residues) co-expressed with human N-terminal GST-tagged NCOR2 (395 to 489 residues) in baculovirus infected Sf9 cells using ZMAL as substrate incubated for 90 mins by fluorometric method
Measured attribute: IC50 (nM)

CN(C)c1cccc2c(S(=O)(=O)N(CC(=O)NCc3ccccc3)Cc3ccc(C(=O)Nc4ccccc4N)cc3)cccc12	1130

a = CN(C)c1cccc2c(S(=O)(=O)N(CC(=O)NCc3ccccc3)Cc3ccc(C(=O)NO)cc3)cccc12
b = CN(C)c1cccc2c(S(=O)(=O)N(CCCCCC(=O)NO)CC(=O)NCc3ccccc3)cccc12
Prompt: Min IC50? a | b Select an item and report its label.
Completion: b
(b: 87 nM, a: 1020 nM)
